Tested on: SF-539
test summary: NCI tumour cell line growth inhibition, 48 h
Calls of active or inactive are those of the source. No stated cut-off is given here; in the data, active = GI50 up to about 1.1 µM and inactive = higher.
Collected GI50 values appear next to each entry.

// worked examples, GI50 included
I would be grateful if you could share the reported GI50 for COC1OC(CBr)C(OC(c2ccccc2)(c2ccccc2)c2ccccc2)C(OC(c2ccccc2)(c2ccccc2)c2ccccc2)C1OC(c1ccccc1)(c1ccccc1)c1ccccc1 (stereo not given) .
23.1 µM (inactive)

Again, but for C=CCN1C[C@H](C)N([C@H](c2ccc(C(=O)NC(CC)CC)cc2)c2cccc(OC)c2)C[C@H]1C
20.4 µM (inactive)

// next record C/C(=C1/N=C(c2cc([N+](=O)[O-])ccc2Cl)N(C2=CC=C(Cl)CC2)C1=O)c1cc2ccccc2oc1=O
10.7 µM (inactive)

Thanks! And Cc1cc(O)nc(NN2C(Cl)C(=O)C2c2cccc(O)c2)n1 (stereo not given) ?
2.74 µM (inactive)

Alright, here's another molecule for you.
Could you share which GI50 value was measured for Cc1c(-c2ccccc2)[nH]c2ccc(Cl)cc2c1=O ?
22.2 µM (inactive)
